Would you mind telling me the reported Activity of each entry?
tested on: HeLa; assay: Cell cycle arrest in human HeLa cells assessed as accumulation at G2/M phase after 48 hrs by flow cytometry analysis (reference value: 16.6 +/- 0.16%); assay type: functional
The response must be a number in % with no trailing unit.

get_value(item= Nc1nc(Nc2ccc(Cl)cc2)sc1C(=O)c1c[nH]c2ccccc12 , readout=Activity) returns 21.56

get_value(item= COc1cc(/C=C/C(=O)c2sc(Nc3ccc(Cl)cc3)nc2N)ccc1O , readout=Activity) returns 28.2

get_value(item= COc1ccc(Nc2nc(N)c(C(=O)c3c[nH]c4ccccc34)s2)cc1 , readout=Activity) returns 12.5

get_value(item= COc1ccc(/C=C/C(=O)c2sc(Nc3ccc(Cl)cc3)nc2N)cc1O , readout=Activity) returns 35.8

get_value(item= COc1ccc(Nc2nc(Nc3ccc(Cl)cc3)c(C(=O)c3c[nH]c4ccccc34)s2)cc1 , readout=Activity) returns 9.78
